SUBJECT OF TEST: Alpha-2A adrenergic receptor (Homo sapiens)
TEST PROTOCOL: Agonist activity at human cloned adrenergic alpha-2A receptor expressed in CHOK1 cells by beta-lactamase reporter gene assay relative to dexmeditomidine
Format: functional, cell-based
STATED CONDITIONS: CHO-K1

COMPOUND	Emax, %
COc1c(C)ccc2c1CCC2c1ncc[nH]1 (stereo not given)	89
COc1cccc2c1CCC2c1ncc[nH]1 (stereo not given)	100
CNC(=O)c1cccc2c1CCC2c1ncc[nH]1 (stereo not given)	44
c1ccc2c(c1)CCCC2c1ncc[nH]1 (stereo not given)	105
c1cncc(-c2cccc3c2CCC3c2ncc[nH]2)c1 (stereo not given)	25

---

SUBJECT OF TEST: Alpha-1D adrenergic receptor (Homo sapiens) (UniProt P25100)
Sequence (P25100 whole entry): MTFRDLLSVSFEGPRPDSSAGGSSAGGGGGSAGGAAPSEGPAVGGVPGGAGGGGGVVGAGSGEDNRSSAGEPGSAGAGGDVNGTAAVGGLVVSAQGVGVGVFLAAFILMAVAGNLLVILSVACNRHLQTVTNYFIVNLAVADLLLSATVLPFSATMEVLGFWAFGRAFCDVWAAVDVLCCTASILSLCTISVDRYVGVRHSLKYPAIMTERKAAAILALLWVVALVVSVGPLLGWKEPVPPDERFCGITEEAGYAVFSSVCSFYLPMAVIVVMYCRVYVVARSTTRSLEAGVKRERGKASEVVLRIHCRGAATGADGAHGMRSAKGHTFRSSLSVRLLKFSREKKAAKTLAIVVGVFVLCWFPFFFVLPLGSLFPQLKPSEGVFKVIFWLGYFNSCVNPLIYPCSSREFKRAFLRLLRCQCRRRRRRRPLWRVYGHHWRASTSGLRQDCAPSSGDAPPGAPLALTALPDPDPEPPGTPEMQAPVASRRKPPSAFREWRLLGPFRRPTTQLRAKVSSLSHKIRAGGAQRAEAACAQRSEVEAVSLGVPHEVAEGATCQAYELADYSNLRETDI
TEST PROTOCOL: Agonist activity at human cloned adrenergic Alpha-1D receptor expressed in CHO cells assessed as calcium mobilization by FLIPR relative to phenylephrine
Assay type: functional, cell-based
Labelling field: enter true (1) if recorded Emax is less than 50%. Enter false (0) if it equals or exceeds that cut-off.

COMPOUND	CATEGORY LABEL
c1cc(-c2cn[nH]c2)c2c(c1)C(c1ncc[nH]1)CC2 (stereo unspecified)	false (0)
c1cc(-c2ccn[nH]2)c2c(c1)C(c1ncc[nH]1)CC2 (stereo unspecified)	false (0)
Cc1n[nH]cc1-c1cccc2c1CCC2c1ncc[nH]1 (stereo unspecified)	false (0)
c1cc(-c2nccs2)c2c(c1)C(c1ncc[nH]1)CC2 (stereo unspecified)	true (1)
c1cc(-c2ncco2)c2c(c1)C(c1ncc[nH]1)CC2 (stereo unspecified)	true (1)
c1ccc2c(c1)CCCC2c1ncc[nH]1 (stereo unspecified)	false (0)

---

SUBJECT OF TEST: Alpha-1B adrenergic receptor (Homo sapiens)
TEST PROTOCOL: Agonist activity at human cloned adrenergic alpha-1B receptor expressed in CHO cells assessed as calcium mobilization by FLIPR
Assay type: functional, cell-based
STATED CONDITIONS: cho

MOLECULE	EC50
CS(=O)(=O)Nc1cccc2c1CCCC2c1ncc[nH]1 (stereo in doubt; 17)	> 10 µM
CS(=O)(=O)Nc1cccc2c1CCCC2c1ncc[nH]1 (stereo in doubt; 17a)	> 10 µM

---

TEST PROTOCOL: Intrinsic clearance in human liver microsomes
Format: ADME, Microsome

COMPOUND	microsomal CLint
CS(=O)(=O)Nc1c(Cl)ccc2c1CCCC2c1ncc[nH]1 (stereo unspecified)	< 7 µL/min/mg

---

SUBJECT OF TEST: Alpha-1B adrenergic receptor (Homo sapiens)
Sequence (P35368 whole entry): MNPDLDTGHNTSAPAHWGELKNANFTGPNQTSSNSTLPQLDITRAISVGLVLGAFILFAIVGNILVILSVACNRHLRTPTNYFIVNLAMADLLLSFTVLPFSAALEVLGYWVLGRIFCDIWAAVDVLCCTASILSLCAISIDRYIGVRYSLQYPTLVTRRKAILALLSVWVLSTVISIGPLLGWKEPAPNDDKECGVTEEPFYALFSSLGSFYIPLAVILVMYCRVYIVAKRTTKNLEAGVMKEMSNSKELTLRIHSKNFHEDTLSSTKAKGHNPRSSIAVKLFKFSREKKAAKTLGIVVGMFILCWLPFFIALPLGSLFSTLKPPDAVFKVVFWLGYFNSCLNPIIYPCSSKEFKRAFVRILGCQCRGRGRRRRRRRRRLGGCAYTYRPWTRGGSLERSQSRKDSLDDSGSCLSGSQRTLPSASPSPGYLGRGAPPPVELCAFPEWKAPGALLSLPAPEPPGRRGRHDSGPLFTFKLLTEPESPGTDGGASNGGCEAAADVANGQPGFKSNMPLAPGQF
TEST PROTOCOL: Agonist activity at human cloned adrenergic alpha-1B receptor expressed in CHO cells assessed as calcium mobilization by FLIPR
Format: functional, cell-based

COMPOUND	EC50
c1ccc(-c2cccc3c2CCC3c2ncc[nH]2)nc1 (stereo not given)	> 10 µM
Clc1ccc2c(c1-c1ccn[nH]1)CCC2c1ncc[nH]1 (stereo not given)	> 10 µM
CS(=O)(=O)Nc1c(Cl)ccc2c1CCCC2c1ncc[nH]1 (stereo not given)	> 10 µM
Clc1ccc2c(c1-c1cn[nH]c1)CCC2c1ncc[nH]1 (stereo not given)	> 10 µM
Cn1ccc(-c2cccc3c2CCC3c2ncc[nH]2)n1 (stereo not given)	> 10 µM
CCCS(=O)(=O)Nc1cccc2c1CCC2c1ncc[nH]1 (stereo not given)	> 10 µM
COc1c(Cl)ccc2c1CCC2c1ncc[nH]1 (stereo not given)	> 10 µM
COc1c(C)ccc2c1CCC2c1ncc[nH]1 (stereo not given)	> 10 µM
Cn1nccc1-c1cccc2c1CCC2c1ncc[nH]1 (stereo not given)	> 10 µM
Cc1[nH]ncc1-c1cccc2c1CCC2c1ncc[nH]1 (stereo not given)	0.902 µM
CNC(=O)c1cccc2c1CCC2c1ncc[nH]1 (stereo not given)	> 10 µM
c1ccc2c(c1)CCCC2c1ncc[nH]1 (stereo not given)	0.791 µM
CCS(=O)(=O)Nc1cccc2c1CCC2c1ncc[nH]1 (stereo not given)	> 10 µM
c1cc(-c2cc[nH]n2)c2c(c1)C(c1ncc[nH]1)CC2 (stereo not given)	0.6 µM
CS(=O)(=O)Nc1cccc2c1CCC2c1ncc[nH]1 (stereo not given)	> 10 µM

The measured values listed here are drawn from ChEMBL document CHEMBL1145605.
